Origin of measurements: paper PMC10387993

# experimentalDetails: LDH cytotoxic activity assay, HeLa
# Format: cell-based
# conditionsUsed: human, HeLa cells, 75 μg/mL
resultType: cytotoxicity at 24 h, 75 μg/mL (%)
Express the result in % but write the number alone.

Record CC(=O)OC[C@H]1O[C@@H](Nc2nc(-c3ccncc3)cc(-c3ccccc3C)n2)[C@H](OC(C)=O)[C@@H](OC(C)=O)[C@@H]1OC(C)=O , field cytotoxicity at 24 h, 75 μg/mL: 42.6

Input Cc1ccc(-c2cc(-c3ccccn3)nc(N[C@@H]3O[C@H](CO)[C@@H](O)[C@H](O)[C@H]3O)n2)cc1 . Output cytotoxicity at 24 h, 75 μg/mL: 38.4

Per the records, this compound ( CC(=O)OC[C@H]1O[C@@H](Nc2nc(-c3cccnc3)cc(-c3cccc(C)c3)n2)[C@H](OC(C)=O)[C@@H](OC(C)=O)[C@@H]1OC(C)=O ) has cytotoxicity at 24 h, 75 μg/mL equal to 33.5

---

Would you mind telling me the reported LC50 (concentration giving 50% net cell loss relative to time zero) of each entry?
# Tested on: C6 (Rat brain glioma)
# experimentalDetails: cells
# Assay type: cell-based
# conditionsUsed: Rattus norvegicus, read-out: LC50

Value of LC50 (concentration giving 50% net cell loss relative to time zero) reported for the compound CC(=O)OC[C@H]1O[C@@H](Nc2nc(-c3cccnc3)cc(-c3cccc(C)c3)n2)[C@H](OC(C)=O)[C@@H](OC(C)=O)[C@@H]1OC(C)=O is > 500 µg/mL

Reported LC50 (concentration giving 50% net cell loss relative to time zero) ( Cc1ccccc1-c1cc(-c2ccncc2)nc(N[C@@H]2O[C@H](CO)[C@@H](O)[C@H](O)[C@H]2O)n1 ) = 252 µg/mL

Measured LC50 (concentration giving 50% net cell loss relative to time zero), Cc1ccc(-c2cc(-c3ccncc3)nc(N[C@@H]3O[C@H](CO)[C@@H](O)[C@H](O)[C@H]3O)n2)cc1 : > 500 µg/mL

The value of LC50 (concentration giving 50% net cell loss relative to time zero) measured for the compound CC(=O)OC[C@H]1O[C@@H](Nc2nc(-c3ccccn3)cc(-c3ccccc3C)n2)[C@H](OC(C)=O)[C@@H](OC(C)=O)[C@@H]1OC(C)=O turned out to be 486 µg/mL

The compound listed as CC(=O)OC[C@H]1O[C@@H](Nc2nc(-c3ccc(C)cc3)cc(-c3ccccn3)n2)[C@H](OC(C)=O)[C@@H](OC(C)=O)[C@@H]1OC(C)=O shows LC50 (concentration giving 50% net cell loss relative to time zero) equal to 22.9 µg/mL

The compound listed as Cc1cccc(-c2cc(-c3cccnc3)nc(N[C@@H]3O[C@H](CO)[C@@H](O)[C@H](O)[C@H]3O)n2)c1 has a reported LC50 (concentration giving 50% net cell loss relative to time zero) of 249 µg/mL

---

# Test system: HeLa
# experimentalDetails: cells
# Type: cell-based
# conditionsUsed: Homo sapiens, MTT, read-out: IC50
resultType: IC50 (µg/mL)
Field: numeric (µg/mL). Do not append units.

Entry Cc1cccc(-c2cc(-c3ccccn3)nc(N[C@@H]3O[C@H](CO)[C@@H](O)[C@H](O)[C@H]3O)n2)c1 — recorded IC50 = 52.2

Memo: Cc1ccc(-c2cc(-c3cccnc3)nc(N[C@@H]3O[C@H](CO)[C@@H](O)[C@H](O)[C@H]3O)n2)cc1 , reported IC50: 81.3

Item: O=c1[nH]cc(F)c(=O)[nH]1 [Compound 5FU, 5-fluorouracil, reference compound] | IC50: 61.6

Value of IC50 reported for the compound CC(=O)OC[C@H]1O[C@@H](Nc2nc(-c3cccc(C)c3)cc(-c3ccccn3)n2)[C@H](OC(C)=O)[C@@H](OC(C)=O)[C@@H]1OC(C)=O is 60.4

The measured IC50 associated with Cc1ccc(-c2cc(-c3ccccn3)nc(N[C@@H]3O[C@H](CO)[C@@H](O)[C@H](O)[C@H]3O)n2)cc1 reads 31.9

Short answer for CC(=O)OC[C@H]1O[C@@H](Nc2nc(-c3ccncc3)cc(-c3ccc(C)cc3)n2)[C@H](OC(C)=O)[C@@H](OC(C)=O)[C@@H]1OC(C)=O : IC50 was 2.29

Form: compound = Cc1ccccc1-c1cc(-c2ccccn2)nc(N[C@@H]2O[C@H](CO)[C@@H](O)[C@H](O)[C@H]2O)n1 ; IC50 = 54.4

Per the records, this compound ( CC(=O)OC[C@H]1O[C@@H](Nc2nc(-c3ccc(C)cc3)cc(-c3ccccn3)n2)[C@H](OC(C)=O)[C@@H](OC(C)=O)[C@@H]1OC(C)=O ) has IC50 equal to 9.13

---

# Tested on: MCF7
# experimentalDetails: cells
# Assay type: cell-based
# conditionsUsed: Homo sapiens; MCF7, MTT; read-out: TGI
resultType: IC (total growth inhibition)

Summary for this compound, Cc1ccccc1-c1cc(-c2ccncc2)nc(N[C@@H]2O[C@H](CO)[C@@H](O)[C@H](O)[C@H]2O)n1 : IC (total growth inhibition) is > 500 µg/mL

Recorded result, CC(=O)OC[C@H]1O[C@@H](Nc2nc(-c3cccc(C)c3)cc(-c3ccccn3)n2)[C@H](OC(C)=O)[C@@H](OC(C)=O)[C@@H]1OC(C)=O , IC (total growth inhibition): 397 µg/mL

Entry under test: Cc1cccc(-c2cc(-c3ccncc3)nc(N[C@@H]3O[C@H](CO)[C@@H](O)[C@H](O)[C@H]3O)n2)c1 . Its IC (total growth inhibition) was > 500 µg/mL

// IC (total growth inhibition) value for CC(=O)OC[C@H]1O[C@@H](Nc2nc(-c3ccc(C)cc3)cc(-c3ccccn3)n2)[C@H](OC(C)=O)[C@@H](OC(C)=O)[C@@H]1OC(C)=O : 4.29 µg/mL

Input Cc1ccc(-c2cc(-c3cccnc3)nc(N[C@@H]3O[C@H](CO)[C@@H](O)[C@H](O)[C@H]3O)n2)cc1 . Output IC (total growth inhibition): > 500 µg/mL

IC (total growth inhibition) for CC(=O)OC[C@H]1O[C@@H](Nc2nc(-c3ccncc3)cc(-c3cccc(C)c3)n2)[C@H](OC(C)=O)[C@@H](OC(C)=O)[C@@H]1OC(C)=O is > 500 µg/mL

Data point: CC(=O)OC[C@H]1O[C@@H](Nc2nc(-c3ccc(C)cc3)cc(-c3cccnc3)n2)[C@H](OC(C)=O)[C@@H](OC(C)=O)[C@@H]1OC(C)=O ; IC (total growth inhibition) = > 500 µg/mL

Lab note: measured IC (total growth inhibition) of Cc1ccc(-c2cc(-c3ccncc3)nc(N[C@@H]3O[C@H](CO)[C@@H](O)[C@H](O)[C@H]3O)n2)cc1 was > 500 µg/mL

For this compound ( Cc1ccccc1-c1cc(-c2ccccn2)nc(N[C@@H]2O[C@H](CO)[C@@H](O)[C@H](O)[C@H]2O)n1 ), measured IC (total growth inhibition) is > 500 µg/mL

Record summary for CC(=O)OC[C@H]1O[C@@H](Nc2nc(-c3cccnc3)cc(-c3ccccc3C)n2)[C@H](OC(C)=O)[C@@H](OC(C)=O)[C@@H]1OC(C)=O : reported IC (total growth inhibition) = > 500 µg/mL

Entry Cc1ccccc1-c1cc(-c2cccnc2)nc(N[C@@H]2O[C@H](CO)[C@@H](O)[C@H](O)[C@H]2O)n1 — recorded IC (total growth inhibition) = > 500 µg/mL

Lab note: measured IC (total growth inhibition) of Cc1cccc(-c2cc(-c3ccccn3)nc(N[C@@H]3O[C@H](CO)[C@@H](O)[C@H](O)[C@H]3O)n2)c1 was > 500 µg/mL

// sample CC(=O)OC[C@H]1O[C@@H](Nc2nc(-c3ccncc3)cc(-c3ccccc3C)n2)[C@H](OC(C)=O)[C@@H](OC(C)=O)[C@@H]1OC(C)=O , its IC (total growth inhibition) was > 500 µg/mL

What the record says about CC(=O)OC[C@H]1O[C@@H](Nc2nc(-c3ccncc3)cc(-c3ccc(C)cc3)n2)[C@H](OC(C)=O)[C@@H](OC(C)=O)[C@@H]1OC(C)=O : IC (total growth inhibition) is > 500 µg/mL

The recorded IC (total growth inhibition) for Cc1cccc(-c2cc(-c3cccnc3)nc(N[C@@H]3O[C@H](CO)[C@@H](O)[C@H](O)[C@H]3O)n2)c1 is 75.7 µg/mL

// IC (total growth inhibition) lookup, compound = Cc1ccc(-c2cc(-c3ccccn3)nc(N[C@@H]3O[C@H](CO)[C@@H](O)[C@H](O)[C@H]3O)n2)cc1 , result: > 500 µg/mL

Given item CC(=O)OC[C@H]1O[C@@H](Nc2nc(-c3cccnc3)cc(-c3cccc(C)c3)n2)[C@H](OC(C)=O)[C@@H](OC(C)=O)[C@@H]1OC(C)=O , the value recorded as its IC (total growth inhibition) is > 500 µg/mL

compound CC(=O)OC[C@H]1O[C@@H](Nc2nc(-c3ccccn3)cc(-c3ccccc3C)n2)[C@H](OC(C)=O)[C@@H](OC(C)=O)[C@@H]1OC(C)=O , IC (total growth inhibition) observed: > 500 µg/mL
